B1: glmS ribozyme (parent)
chain: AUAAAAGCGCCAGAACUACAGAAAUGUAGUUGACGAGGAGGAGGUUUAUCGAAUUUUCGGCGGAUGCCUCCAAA

variants of: B1; experiment: self-cleavage kobs at 40 uM GlcN6P; higher = faster cleavage; RNA array; settings: with glucosamine-6-phosphate
Fewer inactive variants are shown than the library holds.
Attribute: self-cleavage kobs at 40 uM GlcN6P

In [3]: df
Out[3]:
                            record_sequence  reported_result
0  AUAAAAGCGCCAGACCUACAGAAAUGUAGUUUACGAGGAUGAGGUUUAUCGAAUUUUCGGCGGAUGCCUCCAAA [A15C G32U G40U]      < 1e-05 s⁻¹
1  AUAAAACCGCCAGAACUACAGAAAUGUAGUUGACGAGGAGGAGGUUUAUCGAAUAUUCGGCGGAUGCCUCCAAA [G7C U55A]      < 1e-05 s⁻¹
2  AUAAAAGCGCCAGAACUACAGAAAUGUAGUUGACGAGGAGGAGGUUUAUCGAAUUUUCGUGGGAUGCCUCCAAA [G60U C61G]      < 1e-05 s⁻¹

Record request: self-cleavage kobs at 40 uM GlcN6P value, item AUAAAAGCGCUAGAACUACAGAAAUGUAGUUCACGAGGAGGAGGUUUAUCGAAUUUUCGGCGGAUGCCUCCAAA [C11U G32C] < 1e-05 s⁻¹

Also check AUAAAAGCGCCAGAACUACAGAAAUGUACUUGACGAGGAGGAGGUUUAACGAAUUUUCGGCGGAUGCCUCCAAA [G29C U49A] < 1e-05 s⁻¹

Also check AUAAAAGCGCCAGAACUACAGAAAUGUAGGUGACGAGGAGGAGGUUUAUCGAAUUUUCGGCGGAUGCCUCCAAA [U30G] 0.000284 s⁻¹

Also check AUAAAAGCGCCAGUACUACAGAAAUGUAGUUGACGAGGAGGAGGUUUAUGGAAUUUUCGGCGGAUGCCUCCAAA [A14U C50G] 4.12e-05 s⁻¹

Also check AUAAAAGCGCCUGAACUACAGAAAUGUAGUUGACGAGGAGGAGGAUUAUCGAUUUUUCGGCGGAUGCCUCCAAA [A12U U45A A53U] 0.00437 s⁻¹

Also check AUAAAAGCGCCAGAUCUACAGAAAUGUAGGUGACGAGGAGGAGGUUUAUCGAAUUUUCGGCGGAUGCCUCCAAA [A15U U30G] 0.000777 s⁻¹

Also check AUAAAAGCGCCAGAACUACAGAAAUGUAGUUGACGAAGAGGAGGUUUAUAGAAUUUUCAGCGGAUACCUCCAAA [G37A C50A G59A G66A] < 1e-05 s⁻¹

Also check AUAAAAGCGCCAGGACUACAGAAAUGUAGUUGACGAGGAGGAGGUUUAUCGAAUUUUCGGCGGAUGCCUACAAA [A14G C70A] 6.67e-05 s⁻¹
